From: PubChem BioAssay (Tox21)

Molecular target: Thyrotropin receptor (Homo sapiens)
Test: qHTS assay to identify small molecule antagonists of the thyroid stimulating hormone receptor (TSHR) signaling pathway (AID 1259385); note: nearly all actives have a fitted effect of over 20% in size
Settings: TSHR-HEK293 cAMP HTRF, TSH-stimulated antagonist mode; series mostly up to 92.4 µM
Records with an inconclusive call do not appear. Active and inactive are the calls of the source. Calls come from the whole dose curve.
Outcomes: active, inactive

Compound	Measured On	Answer Label
Nc1ccc(S(=O)(=O)Nc2ccccc2)cc1	Thyrotropin receptor (Homo sapiens)	inactive
Cc1ccc(C(C)OC(=O)C2(C)CCC(C(=O)O)C2(C)C)cc1 (stereo unspecified)	Thyrotropin receptor (Homo sapiens)	inactive
O=CC1CC=CCC1 (stereo unspecified)	Thyrotropin receptor (Homo sapiens)	inactive
NCC(=O)CCC(=O)O	Thyrotropin receptor (Homo sapiens)	inactive
CC(CC=O)c1ccccc1 (stereo unspecified)	Thyrotropin receptor (Homo sapiens)	inactive
CCOc1ccc(N=Nc2ccc(/C=C/c3ccc(N=Nc4ccc(OCC)cc4)cc3S(=O)(=O)O)c(S(=O)(=O)O)c2)cc1	Thyrotropin receptor (Homo sapiens)	inactive
CCc1c(C(=O)NN2CCCCC2)nn(-c2ccc(Cl)cc2Cl)c1-c1ccc(Br)cc1	Thyrotropin receptor (Homo sapiens)	inactive
Clc1ccc2c(c1)CCc1cccnc1C2=C1CCNCC1	Thyrotropin receptor (Homo sapiens)	active
CC[N+](C)(CC)CCOC(=O)C(O)(c1ccccc1)C1CCCCC1 (stereo unspecified)	Thyrotropin receptor (Homo sapiens)	inactive
CN(C)CCN(Cc1ccc(Cl)cc1)c1ccccn1	Thyrotropin receptor (Homo sapiens)	inactive
CC1(c2ccccc2)OC(C(=O)O)=CC1=O (stereo unspecified)	Thyrotropin receptor (Homo sapiens)	inactive
O=C(NCCO[N+](=O)[O-])c1cccnc1	Thyrotropin receptor (Homo sapiens)	inactive
O=C(CS)Nc1ccccc1	Thyrotropin receptor (Homo sapiens)	inactive
CCCCCCCCCc1ccc(OCCOCCO)cc1	Thyrotropin receptor (Homo sapiens)	active
CCOC(=O)C1=C[C@]2(CC)CCCN3CCc4c(n1c1ccccc41)[C@@H]32	Thyrotropin receptor (Homo sapiens)	inactive
COS(=O)(=O)C(F)(F)F	Thyrotropin receptor (Homo sapiens)	inactive
CCOCC(O)COc1ccc(NC(=O)CC[S+](C)C)cc1 (stereo unspecified)	Thyrotropin receptor (Homo sapiens)	inactive
CCOC(=O)C(F)(F)F	Thyrotropin receptor (Homo sapiens)	inactive
Cc1cccc(C)c1OCC(=O)N[C@@H](Cc1ccccc1)[C@@H](O)C[C@H](Cc1ccccc1)NC(=O)[C@H](C(C)C)N1CCCNC1=O	Thyrotropin receptor (Homo sapiens)	inactive
C=CC(=O)OCCOc1ccccc1	Thyrotropin receptor (Homo sapiens)	inactive
c1cc(CCCc2ccncc2)ccn1	Thyrotropin receptor (Homo sapiens)	inactive
Cc1cccc(C)c1NC(=O)CN(CC(=O)O)CC(=O)O	Thyrotropin receptor (Homo sapiens)	inactive
O=C(O)c1ccccc1Cl	Thyrotropin receptor (Homo sapiens)	inactive
c1ccc(-c2ccccn2)nc1	Thyrotropin receptor (Homo sapiens)	inactive
CCCCC(CC)CN1C(=O)C2C3C=CC(C3)C2C1=O (stereo unspecified)	Thyrotropin receptor (Homo sapiens)	inactive
COc1cc(C(=O)OCCCN2CCCN(CCCOC(=O)c3cc(OC)c(OC)c(OC)c3)CC2)cc(OC)c1OC	Thyrotropin receptor (Homo sapiens)	inactive

====

Test: qHTS assay to identify small molecule agonists of the constitutive androstane receptor (CAR) signaling pathway - cell viability counter screen (AID 1224836); note: potency is the fitted concentration of half-maximal effect; nearly all actives have a fitted effect of over 45% in size
Conditions: HepG2-CYP2B6-hCAR viability, CellTiter-Fluor, 23 h, PK11195 added to every well; series mostly up to 92.4 µM
Results filed as inconclusive are left out. Activity calls are given as the source filed them. Calls follow the shape of the dose curve; as a rule, active = well fitted cell-killing curve with a large enough effect in the repeat runs; inconclusive = weak or mixed curves, or effect the other way; inactive = flat fitted curve, though single readings scatter.
# key: entry, value: Potency

Compound	Potency
CCOc1ccc(N=Nc2ccc(/C=C/c3ccc(N=Nc4ccc(OCC)cc4)cc3S(=O)(=O)O)c(S(=O)(=O)O)c2)cc1	24 µM (active)
OCc1cc(C(O)CNCCCCCCOCCCCc2ccccc2)ccc1O (centres undefined)	10.6 µM (active)
Nc1ccc(N)c2c1C(=O)c1ccccc1C2=O	17.2 µM (active)
Cc1cccc(C)c1OCC(=O)N[C@@H](Cc1ccccc1)[C@@H](O)C[C@H](Cc1ccccc1)NC(=O)[C@H](C(C)C)N1CCCNC1=O	18.8 µM (active)

====

Experiment: qHTS assay to identify small molecule antagonists of the sonic hedgehog signaling (Shh) pathway (AID 1259369); note: nearly all actives have a fitted effect of over 45% in size
Settings: NIH/3T3 Gli1-Luc reporter, Shh antagonist, luminescence 24 h; series mostly up to 92.4 µM
Inconclusive results are not listed. Activity calls are given as the source filed them. Calls come from the whole dose curve.
Outcomes: true for active, false for inactive

Compound	Answer Label
C/C=C(/C(=C/C)c1ccc(OC(C)=O)cc1)c1ccc(OC(C)=O)cc1	true
COc1cc(Cl)c(OC)cc1N	false
CCCCCCCCCOS(=O)(=O)O	false
C[C@@H](c1ncncc1F)C(O)(Cn1cncn1)c1ccc(F)cc1F (stereo partly drawn)	false
NCc1ccccc1Sc1ccccc1CO	false
O=C1CCC(=O)O1	false
CC1CCC(=O)C1=O (stereo not drawn)	false
COc1ccc2cccc(CCNC(C)=O)c2c1	false

====

Experiment: qHTS assay to identify small molecule antagonists of the estrogen related receptor signaling pathway with the pleiotropic PPARgamma coactivator (PGC) from Tox21 10K library - cell viability counter screen (AID 1224840); note: nearly all actives have a fitted effect of over 40% in size
Settings: PGC/ERR reporter cells viability, CellTiter-Fluor, 17.5 h; series mostly up to 92.4 µM
Records with an inconclusive call do not appear. The source made the active and inactive calls. Calls follow the shape of the dose curve; as a rule, active = well fitted cell-killing curve with a large enough effect in the repeat runs (not every such curve was filed as active); inconclusive = weak or mixed curves, or effect the other way; inactive = no such curve, though single readings can be large or run the other way.
Outcomes: Yes (active), No (inactive)

Compound	Answer Label
COC(C)(C)CCO	No
CCOc1ccc(N=Nc2ccc(/C=C/c3ccc(N=Nc4ccc(OCC)cc4)cc3S(=O)(=O)O)c(S(=O)(=O)O)c2)cc1	Yes
CCOC(=O)NCCOc1ccc(Oc2ccccc2)cc1	No
Cc1cc(N)c2cc(NC(=O)Nc3ccc4nc(C)cc(N)c4c3)ccc2n1	No
COc1ccc2cccc(CCNC(C)=O)c2c1	No
C[N+]1(CC2COC(c3ccccc3)(C3CCCCC3)O2)CCCCC1 (stereo unspecified)	No

====

Target: Cytochrome P450 1A2 (Homo sapiens) (UniProt P05177)
Sequence (P05177 whole entry, looked up): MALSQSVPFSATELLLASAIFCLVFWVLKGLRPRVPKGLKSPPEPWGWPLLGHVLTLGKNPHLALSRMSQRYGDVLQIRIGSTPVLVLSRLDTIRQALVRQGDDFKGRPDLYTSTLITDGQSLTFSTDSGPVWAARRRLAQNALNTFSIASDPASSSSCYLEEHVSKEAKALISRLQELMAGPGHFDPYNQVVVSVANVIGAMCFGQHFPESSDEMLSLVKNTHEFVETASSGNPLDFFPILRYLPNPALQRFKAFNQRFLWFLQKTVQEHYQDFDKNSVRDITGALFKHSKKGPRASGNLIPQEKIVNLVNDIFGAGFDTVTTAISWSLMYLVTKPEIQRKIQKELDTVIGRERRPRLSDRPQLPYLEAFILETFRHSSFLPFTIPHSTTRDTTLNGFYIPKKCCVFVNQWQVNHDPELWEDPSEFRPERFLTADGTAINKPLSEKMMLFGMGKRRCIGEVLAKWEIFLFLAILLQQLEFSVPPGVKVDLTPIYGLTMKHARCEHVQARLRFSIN
Experiment: Cytochrome P450 Family 1 Subfamily A Member 2 (CYP1A2) small molecule antagonists: luciferase reporter qHTS assay (AID 1671199); note: nearly all actives have a fitted effect of over 50% in size
Settings: P450-Glo CYP1A2 enzyme, luciferin luminescence, 1 h; series mostly up to 53 µM
Inconclusive results are not listed. The source made the active and inactive calls. Calls follow the shape of the dose curve; as a rule, active = well fitted inhibition curve with a large enough effect in the repeat runs; inconclusive = weak or mixed curves; inactive = no such curve, though single readings can be large or run the other way.
Outcomes: TRUE for active, FALSE for inactive

Molecule	Answer Label
Cc1ccc(N=Nc2c(O)c(C(=O)O)cc3ccccc23)c(S(=O)(=O)O)c1	FALSE
CC(C)CC(=O)C1C(=O)c2ccccc2C1=O	TRUE
COc1ccc(C)cc1[N+](=O)[O-]	TRUE
CN1CCN(C(c2ccccc2)c2ccccc2)CC1	FALSE
CC(C)=CCC/C(C)=C/CC/C(C)=C/CO	TRUE
COc1cc2nc(Cl)nc(N)c2cc1OC	TRUE
COc1cc(Cl)c(OC)cc1N	TRUE
COC(C)OC	FALSE
O=S(=O)(Oc1ccc(Cl)cc1)c1ccccc1	TRUE
CC(C)Cc1ccc(C(C)C(=O)OCc2ccccn2)cc1 (stereo not given)	TRUE
CCCCCCOC(=O)NC(=N)c1ccc(NCc2nc3cc(C(=O)N(CCC(=O)OCC)c4ccccn4)ccc3n2C)cc1	FALSE
COc1ccc(-c2nc3ccc(C4=NNC(=O)CC4C)cc3[nH]2)cc1 (stereo not given)	TRUE
CN(C)CCOC(c1ccccc1)c1ccc(Br)cc1 (stereo not given)	TRUE
CCC(C)c1cc(C(C)(C)C)c(O)c(C(C)(C)C)c1 (stereo not given)	TRUE
O=C(OCCCCCCOC(=O)c1ccccc1)c1ccccc1	TRUE

====

Target: Cytochrome P450 2C19 (Homo sapiens) (UniProt P33261)
Sequence (P33261 whole entry, looked up): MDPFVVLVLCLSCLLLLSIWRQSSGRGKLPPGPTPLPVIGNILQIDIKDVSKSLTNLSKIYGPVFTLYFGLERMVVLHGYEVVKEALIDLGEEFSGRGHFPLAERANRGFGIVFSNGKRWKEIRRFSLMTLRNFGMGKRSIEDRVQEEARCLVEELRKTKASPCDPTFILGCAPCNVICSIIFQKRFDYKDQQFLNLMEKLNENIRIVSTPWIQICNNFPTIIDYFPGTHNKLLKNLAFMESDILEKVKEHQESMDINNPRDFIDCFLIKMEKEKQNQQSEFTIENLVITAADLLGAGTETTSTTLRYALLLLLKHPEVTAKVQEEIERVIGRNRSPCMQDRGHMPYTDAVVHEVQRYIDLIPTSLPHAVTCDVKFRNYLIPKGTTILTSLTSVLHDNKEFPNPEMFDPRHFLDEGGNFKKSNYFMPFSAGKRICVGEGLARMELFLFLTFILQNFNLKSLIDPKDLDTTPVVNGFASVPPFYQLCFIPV
Test: Cytochrome P450 Family 2 Subfamily C Member 19 (CYP2C19) small molecule antagonists: luciferase reporter qHTS assay (AID 1671197); note: nearly all actives have a fitted effect of over 65% in size
Conditions: P450-Glo CYP2C19 enzyme, luciferin luminescence, 1 h; series mostly up to 52.9 µM
Records with an inconclusive call do not appear. Calls of active or inactive are those of the source. Calls follow the shape of the dose curve; as a rule, active = well fitted inhibition curve with a large enough effect in the repeat runs; inconclusive = weak or mixed curves; inactive = no such curve, though single readings can be large or run the other way.
Outcomes: active, inactive

Compound	Answer Label
OCc1cc(C(O)CNCCCCCCOCCCCc2ccccc2)ccc1O (configuration not stated)	inactive
C=C(C)C(=O)OCCOCC	active
Nc1ncn([C@H]2C[C@H](O)[C@@H](CO)O2)c(=O)n1	inactive
Clc1ccc(Cn2c(CN3CCCC3)nc3ccccc32)cc1	active
CCCCC(CC)COC(=O)CCCCCCCCC(=O)OCC(CC)CCCC (configuration not stated)	inactive
CCCCCCCCCOS(=O)(=O)O	active
CCOc1ccc(N=Nc2ccc(/C=C/c3ccc(N=Nc4ccc(OCC)cc4)cc3S(=O)(=O)O)c(S(=O)(=O)O)c2)cc1	inactive
C#Cc1cccc(Nc2ncnc3cc(OCCOC)c(OCCOC)cc23)c1	inactive
O=C1OC(CN2CCOCC2)CN1/N=C/c1ccc([N+](=O)[O-])o1 (configuration not stated)	inactive
Cc1ccc(C(=O)Oc2ccc(C(O)CNC(C)(C)C)cc2OC(=O)c2ccc(C)cc2)cc1 (configuration not stated)	inactive
C=CCOc1ccccc1OCC(O)CNC(C)C (configuration not stated)	inactive
OCCNCc1ccccc1	active
